Each recorded value in this set is attributed to patent US20240368151A1.

# EXPERIMENT_DESCRIPTION: Metabolic stability in mouse liver microsomes (MLM)
# Type: in vitro ADME
# CONDITIONS: mouse, pooled mouse liver microsomes, pH 7.4, MLM (CD-1), NADPH
# Description: MLM Stability Pooled MLM from CD-1 mice (BIOIVT M00501) were used.
half-life at 1 μM vs 2 min: less than gives Fulfilled; not less than gives Not fulfilled.

The examples below pair each entry with its known result.
# MOLECULE, ANSWER_LABEL
records = [
    ("CCN(CC)C(=O)[C@@H]1C=C2c3cccc4[nH]cc(c34)C[C@H]2N(Cc2ccccc2OC)C1", "Fulfilled"),
    ("CCN(CC)C(=O)[C@@H]1C=C2c3cccc4[nH]cc(c34)C[C@H]2N(CCc2cccc(OC)c2)C1", "Fulfilled"),
    ("CCN(CC)C(=O)[C@@H]1C=C2c3cccc4[nH]cc(c34)C[C@H]2N(Cc2cccc(OC)c2)C1", "Not fulfilled"),
    ("C=CCN1C[C@H](C(=O)N[C@H](C)CC)C=C2c3cccc4[nH]cc(c34)C[C@H]21", "Not fulfilled"),
    ("CCN(CC)C(=O)[C@@H]1C=C2c3cccc4[nH]cc(c34)C[C@H]2N(C)C1 [LSD, lysergic acid diethylamide, reference compound]", "Not fulfilled"),
]

## Input Consider the molecule CC[C@@H](C)NC(=O)[C@H]1C=C2c3cccc4[nH]cc(c34)C[C@H]2N(CC)C1 . Is its half-life at 1 μM strictly less than 2 min?
## Output Fulfilled

## Input Also CCC[C@@H](C)NC(=O)[C@H]1C=C2c3cccc4[nH]cc(c34)C[C@H]2N(C)C1 [Int17a] , if possible.
## Output Fulfilled

## Input Also C[C@H]1C[C@H](C)N1C(=O)[C@@H]1C=C2c3cccc4[nH]cc(c34)C[C@H]2N(C)C1 , if possible.
## Output Not fulfilled

* * *

Measured 5-HT1A % Act @ Max Dose of individual entries
# SUBJECT_OF_TEST: 5-HT1A receptor (Homo sapiens (Human), UniProt P08908)
# EXPERIMENT_DESCRIPTION: FLIPR Ca^2+ flux agonist assay at 5-HT1A
# Type: cell-based
# CONDITIONS: CHO cells
# Description: Functional Assays at 5-HT2A, 5-HT2B, and 5-HT1A. Agonist activity at 5-HT2A, 5-HT2B, and 5-HT1A receptors was determined using a FLIPR Ca^2+ flux assay at WuXi AppTec (Hong Kong) Limited according to their standard protocols. […] 10p L of references and compounds were then transferred from the compound plate into the cell plate and the fluorescent signal was read.
Dear colleague, please return just the value in %, with no unit written.

Below, 3 molecules whose answers are already recorded.
# SMILES_INPUT, SUBJECT_OF_TEST, UNIT_ABBREV, RECORDED_RESULT
records = [
    ("CC[C@@H](C)NC(=O)[C@@H]1C=C2c3cccc4[nH]cc(c34)C[C@H]2N(CC)C1", "5-HT1A receptor (Homo sapiens (Human), UniProt P08908)", "%", 107.87),
    ("CCN(CC)C(=O)[C@@H]1C=C2c3cccc4[nH]cc(c34)C[C@H]2N(Cc2ccccc2O)C1", "5-HT1A receptor (Homo sapiens (Human), UniProt P08908)", "%", 22.29),
    ("CCCN1C[C@H](C(=O)N[C@H](C)CC)C=C2c3cccc4[nH]cc(c34)C[C@H]21", "5-HT1A receptor (Homo sapiens (Human), UniProt P08908)", "%", 107.6),
]

// next item, 5-HT1A % Act @ Max Dose requested
## Input Form entry - test system: 5-HT1A receptor (Homo sapiens (Human), UniProt P08908); read-out: 5-HT1A % Act @ Max Dose; molecule: CCCN1C[C@H](C(=O)NC(CC)CC)C=C2c3cccc4[nH]cc(c34)C[C@H]21
## Output 101.82
